- Test system: Malme-3M
- Protocol Summary: NCI tumour cell line growth inhibition, 48 h
Activity calls are given as the source filed them. Cut-off read from the data, not from the text of the source: active = GI50 up to about 1.1 µM and inactive = higher.
The entries below are paired with their reported GI50.

> print(dat)
                                   compound  observed.property                result
1  COC1C(N)C(OC2C(Oc3cccc4c(O)c5c(=O)oc6ccc(C)c7c(=O)oc(c34)c5c67)OC(C)C(O)C2(C)O)OC(C)C1O (configuration not stated)               GI50  < 0.0107 µM (active)
2  CCC(=O)O[C@H]1CC[C@H]2[C@@H]3CCC4=C/C(=N/OC(=O)c5cccc6cc7ccccc7nc56)CC[C@]4(C)[C@H]3CC[C@]12C               GI50    29.2 µM (inactive)
3  COc1c(C)c(O)c2c(c1C)OC(c1ccccc1)CC2=O (configuration not stated)               GI50    24.6 µM (inactive)
4        O=C(Nc1ccccc1[N+](=O)[O-])c1ccccc1               GI50   > 100 µM (inactive)
5  O=C1C=CC2(O[C@H](C3CCCCC3)[C@@H](C3CCCCC3)O2)C(SC(=O)c2ccccc2)C1 (some centres not stated)               GI50    3.66 µM (inactive)
6  CCCC(=O)NC(C(=O)OCC)(N1CCOCC1)C(F)(F)F (configuration not stated)               GI50   > 100 µM (inactive)

// next entry
In plain terms, COc1cc(C(=O)OC2CC(C)=CC[C@@]3(C)CC[C@](O)(C(C)C)C23)ccc1O (some centres not stated) has a documented GI50 of 18.6 µM (inactive)

Source: ChEMBL document CHEMBL1201862
